assay: Cytotoxicity against human Raji cells assessed as cell viability at 10 molar ratio/TPA after 48 hrs; assay type: cell-based; conditions: read-out: Activity
Listing of recorded viability at 48 h, 10 molar ratio/TPA by entry.

CCC(C)C(=O)OC[C@]12[C@H](OC(=O)c3ccccc3)[C@@H](OC(C)=O)[C@@H]3[C@@H](OC(C)=O)[C@]1(OC3(C)C)[C@@](C)(O)C[C@H](OC(C)=O)[C@@H]2OC(C)=O (stereo partly specified)	> 80%
CCC(C)C(=O)OC[C@]12[C@H](OC(=O)c3ccccc3)[C@@H](OC(C)=O)[C@@H]3[C@@H](O)[C@]1(OC3(C)C)[C@@](C)(O)C[C@H](OC(C)=O)[C@@H]2OC(C)=O (stereo partly specified)	> 80%
CCC(C)C(=O)OC[C@]12[C@H](OC(=O)c3ccccc3)[C@@H](OC(C)=O)[C@@H]3[C@@H](OC(C)=O)[C@]1(OC3(C)C)[C@@](C)(O)C[C@H](OC(=O)c1ccccc1)[C@@H]2OC(C)=O (stereo partly specified)	> 80%
CC1=C(/C=C/C(C)=C/C=C/C(C)=C/C=C/C=C(C)/C=C/C=C(C)/C=C/C2=C(C)CCCC2(C)C)C(C)(C)CCC1 [BETA CAROTENE]	100%
CCC(C)C(=O)OC[C@]12[C@H](OC(=O)c3ccccc3)[C@@H](O)[C@@H]3[C@@H](O)[C@]1(OC3(C)C)[C@@](C)(O)C[C@H](OC(C)=O)[C@@H]2OC(C)=O (stereo partly specified)	> 80%

Proceed to the following item.
viability at 48 h, 10 molar ratio/TPA reported for this compound CCC(C)C(=O)OC[C@]12[C@H](OC(=O)c3ccccc3)[C@@H](OC(C)=O)[C@@H]3[C@@H](OC(C)=O)[C@]1(OC3(C)C)[C@@](C)(O)C[C@H](O)[C@@H]2OC(C)=O (stereo partly specified) : > 80%

###

test: Cytotoxicity against human Raji cells assessed as cell viability at 100 molar ratio/TPA after 48 hrs; type: cell-based; conditions: read-out: Activity
Listing of recorded viability at 48 h, 100 molar ratio/TPA by entry.

CCC(C)C(=O)OC[C@]12[C@H](OC(=O)c3ccccc3)[C@@H](OC(C)=O)[C@@H]3[C@@H](OC(C)=O)[C@]1(OC3(C)C)[C@@](C)(O)C[C@H](OC(C)=O)[C@@H]2OC(C)=O (stereo partly specified)	> 80%
CCC(C)C(=O)OC[C@]12[C@H](OC(=O)c3ccccc3)[C@@H](OC(C)=O)[C@@H]3[C@@H](O)[C@]1(OC3(C)C)[C@@](C)(O)C[C@H](OC(C)=O)[C@@H]2OC(C)=O (stereo partly specified)	> 80%
CCC(C)C(=O)OC[C@]12[C@H](OC(=O)c3ccccc3)[C@@H](OC(C)=O)[C@@H]3[C@@H](OC(C)=O)[C@]1(OC3(C)C)[C@@](C)(O)C[C@H](O)[C@@H]2OC(C)=O (stereo partly specified)	> 80%
CC1=C(/C=C/C(C)=C/C=C/C(C)=C/C=C/C=C(C)/C=C/C=C(C)/C=C/C2=C(C)CCCC2(C)C)C(C)(C)CCC1 [BETA CAROTENE]	100%
CCC(C)C(=O)OC[C@]12[C@H](OC(=O)c3ccccc3)[C@@H](OC(C)=O)[C@@H]3[C@@H](OC(C)=O)[C@]1(OC3(C)C)[C@@](C)(O)C[C@H](OC(=O)c1ccccc1)[C@@H]2OC(C)=O (stereo partly specified)	> 80%

Proceed to the following item.
viability at 48 h, 100 molar ratio/TPA reported for this compound CCC(C)C(=O)OC[C@]12[C@H](OC(=O)c3ccccc3)[C@@H](O)[C@@H]3[C@@H](O)[C@]1(OC3(C)C)[C@@](C)(O)C[C@H](OC(C)=O)[C@@H]2OC(C)=O (stereo partly specified) : > 80%

###

system: Raji; experiment: Inhibition of 12-O-tetradecanoylphorbol-13-acetate-induced EBV-early antigen activation in human Raji cells at 100 molar ratio after 48 hrs relative to TPA; type: cell-based; set-up: scale not given: the % may be the effect or the level left; conditions: human gammaherpesvirus 4
experimental-endpoint: Activity (%)
Your answer is read as %, so omit the unit and give the number.

Some compounds with known Activity results, for comparison:
CCC(C)C(=O)OC[C@]12[C@H](OC(=O)c3ccccc3)[C@@H](OC(C)=O)[C@@H]3[C@@H](O)[C@]1(OC3(C)C)[C@@](C)(O)C[C@H](OC(C)=O)[C@@H]2OC(C)=O (stereo not given in full)	77.4
CCC(C)C(=O)OC[C@]12[C@H](OC(=O)c3ccccc3)[C@@H](OC(C)=O)[C@@H]3[C@@H](OC(C)=O)[C@]1(OC3(C)C)[C@@](C)(O)C[C@H](O)[C@@H]2OC(C)=O (stereo not given in full)	73.7
CCC(C)C(=O)OC[C@]12[C@H](OC(=O)c3ccccc3)[C@@H](O)[C@@H]3[C@@H](O)[C@]1(OC3(C)C)[C@@](C)(O)C[C@H](OC(C)=O)[C@@H]2OC(C)=O (stereo not given in full)	74
CCC(C)C(=O)OC[C@]12[C@H](OC(=O)c3ccccc3)[C@@H](OC(C)=O)[C@@H]3[C@@H](OC(C)=O)[C@]1(OC3(C)C)[C@@](C)(O)C[C@H](OC(=O)c1ccccc1)[C@@H]2OC(C)=O (stereo not given in full)	75.9

Activity reported for this compound CCC(C)C(=O)OC[C@]12[C@H](OC(=O)c3ccccc3)[C@@H](OC(C)=O)[C@@H]3[C@@H](OC(C)=O)[C@]1(OC3(C)C)[C@@](C)(O)C[C@H](OC(C)=O)[C@@H]2OC(C)=O (stereo not given in full) : 79.2

###

Listing of recorded viability at 48 h, 1000 molar ratio/TPA by entry.
assay: Cytotoxicity against human Raji cells assessed as cell viability at 1000 molar ratio/TPA after 48 hrs; assay type: cell-based; settings: read-out: Activity
Your answer is read as %, so omit the unit and give the number.

CCC(C)C(=O)OC[C@]12[C@H](OC(=O)c3ccccc3)[C@@H](O)[C@@H]3[C@@H](O)[C@]1(OC3(C)C)[C@@](C)(O)C[C@H](OC(C)=O)[C@@H]2OC(C)=O (stereo not given in full)	60

viability at 48 h, 1000 molar ratio/TPA reported for this compound CCC(C)C(=O)OC[C@]12[C@H](OC(=O)c3ccccc3)[C@@H](OC(C)=O)[C@@H]3[C@@H](OC(C)=O)[C@]1(OC3(C)C)[C@@](C)(O)C[C@H](O)[C@@H]2OC(C)=O (stereo not given in full) : 60

viability at 48 h, 1000 molar ratio/TPA reported for this compound CCC(C)C(=O)OC[C@]12[C@H](OC(=O)c3ccccc3)[C@@H](OC(C)=O)[C@@H]3[C@@H](OC(C)=O)[C@]1(OC3(C)C)[C@@](C)(O)C[C@H](OC(C)=O)[C@@H]2OC(C)=O (stereo not given in full) : 70

viability at 48 h, 1000 molar ratio/TPA reported for this compound CCC(C)C(=O)OC[C@]12[C@H](OC(=O)c3ccccc3)[C@@H](OC(C)=O)[C@@H]3[C@@H](O)[C@]1(OC3(C)C)[C@@](C)(O)C[C@H](OC(C)=O)[C@@H]2OC(C)=O (stereo not given in full) : 70

viability at 48 h, 1000 molar ratio/TPA reported for this compound CCC(C)C(=O)OC[C@]12[C@H](OC(=O)c3ccccc3)[C@@H](OC(C)=O)[C@@H]3[C@@H](OC(C)=O)[C@]1(OC3(C)C)[C@@](C)(O)C[C@H](OC(=O)c1ccccc1)[C@@H]2OC(C)=O (stereo not given in full) : 60

###

test: Cytotoxicity against human Raji cells assessed as cell viability at 500 molar ratio/TPA after 48 hrs; format: cell-based; conditions: read-out: Activity
experimental-endpoint: viability at 48 h, 500 molar ratio/TPA

Some compounds with known viability at 48 h, 500 molar ratio/TPA results, for comparison:
CCC(C)C(=O)OC[C@]12[C@H](OC(=O)c3ccccc3)[C@@H](OC(C)=O)[C@@H]3[C@@H](O)[C@]1(OC3(C)C)[C@@](C)(O)C[C@H](OC(C)=O)[C@@H]2OC(C)=O (stereo partly specified)	> 80%
CC1=C(/C=C/C(C)=C/C=C/C(C)=C/C=C/C=C(C)/C=C/C=C(C)/C=C/C2=C(C)CCCC2(C)C)C(C)(C)CCC1 [BETA CAROTENE]	80%
CCC(C)C(=O)OC[C@]12[C@H](OC(=O)c3ccccc3)[C@@H](OC(C)=O)[C@@H]3[C@@H](OC(C)=O)[C@]1(OC3(C)C)[C@@](C)(O)C[C@H](OC(=O)c1ccccc1)[C@@H]2OC(C)=O (stereo partly specified)	> 80%
CCC(C)C(=O)OC[C@]12[C@H](OC(=O)c3ccccc3)[C@@H](OC(C)=O)[C@@H]3[C@@H](OC(C)=O)[C@]1(OC3(C)C)[C@@](C)(O)C[C@H](O)[C@@H]2OC(C)=O (stereo partly specified)	> 80%

viability at 48 h, 500 molar ratio/TPA reported for this compound CCC(C)C(=O)OC[C@]12[C@H](OC(=O)c3ccccc3)[C@@H](OC(C)=O)[C@@H]3[C@@H](OC(C)=O)[C@]1(OC3(C)C)[C@@](C)(O)C[C@H](OC(C)=O)[C@@H]2OC(C)=O (stereo partly specified) : > 80%

viability at 48 h, 500 molar ratio/TPA reported for this compound CCC(C)C(=O)OC[C@]12[C@H](OC(=O)c3ccccc3)[C@@H](O)[C@@H]3[C@@H](O)[C@]1(OC3(C)C)[C@@](C)(O)C[C@H](OC(C)=O)[C@@H]2OC(C)=O (stereo partly specified) : > 80%
